- protocol.notes: Ratio of minimum drug concentration to ID50 of the compound(Adems strain)
- Format: ADME
- condition: read-out: Therapeutic index
measure: selectivity ratio
Hey, just send me the number, nothing else.

# lookup: selectivity ratio of NC(=O)c1ncn([C@@H]2O[C@H](CO)[C@@H](O)[C@H]2O)n1
5

* * *

- protocol.notes: Ratio of minimum drug concentration to ID50 of the compound(Adems strain)
- Assay type: ADME
- condition: read-out: Therapeutic ratio
measure: selectivity ratio
Response field accepts a number only; no unit should be typed.

I am curious: what selectivity ratio value has been reported for c1c[se]cn1 ?
1.8

* * *

- protocol.notes: Ratio of minimum drug concentration to ID50 of the compound(Asibi strain)
- Type: ADME
- condition: read-out: Therapeutic index
measure: selectivity ratio
# answer = number (no unit)

Fill in: selectivity ratio of Nc1ccn([C@@H]2C=C(CO)[C@@H](O)[C@H]2O)c(=O)n1 is ___
0.1

* * *

- protocol.notes: Ratio of minimum drug concentration to ID50 of the compound (Indiana strain)
- Assay type: ADME
- condition: read-out: Therapeutic index
measure: selectivity ratio
# answer = number (no unit)

Reported selectivity ratio, compound Nc1nccc2c1ncn2[C@@H]1C[C@H](CO)[C@@H](O)[C@H]1O [3-DEAZAARISTEROMYCIN A] : ____
2.3

If you can, please state the reported selectivity ratio value of Nc1ccn([C@@H]2C=C(CO)[C@@H](O)[C@H]2O)c(=O)n1 .
0.6

* * *

- protocol.notes: Ratio of minimum drug concentration to ID50 of the compound ([…] strain)
- Type: ADME
- condition: read-out: Therapeutic index
measure: selectivity ratio
Output spec: single numeric token, no unit.

What does the record list as selectivity ratio for Nc1ccn([C@@H]2C=C(CO)[C@@H](O)[C@H]2O)c(=O)n1 ?
3.1

* * *

- protocol.notes: Ratio of minimum drug concentration to ID50 of the compound (Adames strain)
- Assay type: ADME
- condition: read-out: Therapeutic index
measure: selectivity ratio

Can you share its selectivity ratio? I mean this compound: Nc1ccn([C@@H]2C=C(CO)[C@@H](O)[C@H]2O)c(=O)n1
0.3

The reported measurements were obtained from ChEMBL document CHEMBL1124192.
